Target under test: T1, CXCL121 (constitutively monomeric CXCL12 variant, L55C/I58C) (Felis catus (Cat) (Felis silvestris …, UniProt O62657 22-89, engineered disulfide between Cys55 and Cys58))
T1 construct: also called CXCL12 locked monomer; LM
T1 sequence (O62657 22-89 L76C/I79C limits assumed): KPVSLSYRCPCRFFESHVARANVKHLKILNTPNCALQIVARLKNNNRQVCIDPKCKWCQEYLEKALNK
Test method notes: NMR 1H-15N HSQC titration of peptide into 15N-labelled chemokine, chemical shift perturbations fitted to a quadratic binding equation, 298 K
Measure name: Kd (µM)

1. GMMEGISIYTSDNYTEEMGSGDYDSMKEPAFREENANFNK (range 1-38; Unsulfated recombinant peptide; also called CXCR4 N-terminal domain; CXCR1-38) [CXCR41-38 (first 38 amino acids of CXCR4 preceded by a GlyMet dipeptide tag)] : 3.5

P: Ac-ISIYTSD-NH2 (Synthetic CXCR4 heptapeptide, residues 4-10; also called CXCR4 Ile4-Asp10 heptapeptide) [4ISIYTSD10 (unsulfated Tyr7 peptide)]
Q: Ac-SDNYTEE-NH2 (Synthetic CXCR4 heptapeptide, residues 9-15; also called unsulfated Tyr12 peptide) [9SDNYTEE15 (Tyr12 peptide)]
Field: lower Kd | Options: P / Q Give the label of your selection. P
